- System: CEM cells HIV-1 protection, formazan growth assay
- experiment summary: NCI AIDS Antiviral Assay
- measurement parameters: measured here: growth of uninfected CEM cells
Our labelling divides records by IC50 into ranges: low (below 20 µM), intermediate (20 µM to below 100 µM), high (100 µM or more)

[
  {
    "molecule": "COC(=O)C(C(=O)C(=O)Nc1nc(=S)[nH][nH]1)c1csc(N)n1 (stereo unspecified)",
    "group label": "high"
  },
  {
    "molecule": "CCOC(=O)c1ccc(CS(=O)c2ccc(C)cc2)c([N+](=O)[O-])c1 (stereo unspecified)",
    "group label": "low"
  },
  {
    "molecule": "CCOC(=O)C1/C(=N/N)CN2CCc3c([nH]c4ccccc34)C12C(=O)OCC (stereo unspecified)",
    "group label": "high"
  },
  {
    "molecule": "O[C@H]1C=CC[C@H]2C(F)(F)[C@](F)(Cl)[C@@]12Cl",
    "group label": "high"
  },
  {
    "molecule": "CCN(CC)C(=O)CC12CCCCC1=Nc1ccccc12 (stereo unspecified)",
    "group label": "high"
  },
  {
    "molecule": "COc1cc(NC(=O)CC(C)=O)cc2c(C)cc(=O)n(C)c12",
    "group label": "high"
  },
  {
    "molecule": "O=c1[nH]cnc2c1nnn2CCCCCCCCCCCCn1nnc2c(=O)[nH]cnc21",
    "group label": "intermediate"
  },
  {
    "molecule": "CN(C)c1ccc(-c2c(C#N)c(S)n(NS(=O)(=O)c3ccccc3)c(=O)c2C#N)cc1",
    "group label": "low"
  },
  {
    "molecule": "COc1cc2ccc3c(c2oc1=O)[C@@H](OC(=O)C12CCC(C)(C(=O)O1)C2(C)C)[C@@H](OC(=O)C12CCC(C)(C(=O)O1)C2(C)C)C(C)(C)O3 (stereo partly specified)",
    "group label": "low"
  },
  {
    "molecule": "O=c1c(SSc2coc3ccccc3c2=O)coc2ccccc12",
    "group label": "low"
  },
  {
    "molecule": "CCOC(=O)C(=CNC(=S)Nc1c(CC)cccc1CC)C(=O)OCC",
    "group label": "high"
  },
  {
    "molecule": "Cc1cc2c(c(C(=O)NCCC(=O)N[C@@H](C)C(=O)OCc3ccccc3)c1)Oc1c(cc(C)cc1C(=O)NCCC(=O)N[C@@H](C)C(=O)OCc1ccccc1)S2",
    "group label": "high"
  },
  {
    "molecule": "O=c1c(Sc2c(SCSc3cnc4ccccc4c3Sc3c[nH]c4ccccc4c3=O)cnc3ccccc23)c[nH]c2ccccc12",
    "group label": "high"
  },
  {
    "molecule": "CC1(C)C2CCC3CC(CCC#N)CCC3C21C#N (stereo unspecified)",
    "group label": "intermediate"
  },
  {
    "molecule": "CC(C)C1SCc2nc3ccccc3n21 (stereo unspecified)",
    "group label": "intermediate"
  },
  {
    "molecule": "O=C(NNC1=NCCCCN1)Nc1ccc(Cl)cc1",
    "group label": "high"
  },
  {
    "molecule": "CC1CNC2(c3ccccc3)CSC=C(c3ccccc3)N12 (stereo unspecified)",
    "group label": "high"
  },
  {
    "molecule": "CC(=O)OC(C)CC[P+](c1ccccc1)(c1ccccc1)c1ccccc1 (stereo unspecified)",
    "group label": "intermediate"
  },
  {
    "molecule": "CC(C)=CCc1cc2c(cc1O)OC[C@H]1c3cc4c(cc3O[C@@H]21)OCO4",
    "group label": "low"
  }
]

Where do these numbers come from? They come from PubChem BioAssay AID179.
